Listed molecules paired with reported growth
Test system: NCI-H23 lung
Experiment: NCI-60 one-dose screen, 48 h (100 = growth as untreated, 0 = no growth, -100 = all killed)
Details: 10 µM unless noted
The panel holds about 83,000 compounds, 20% with a hit somewhere; the sample as a whole holds those more often. Calls of active or inactive are those of the source. How the source made its calls: active means growth percent below 10; inactive means the rest.

Here's what some known entries look like.
>>> observed_measurement("C=CCNc1nc(NN2C(=O)c3cccc4cccc(c34)C2=O)nc(-n2cnc3ccccc32)n1")
"76.9% (inactive)"
>>> observed_measurement("COc1ccc(NC(=O)CSc2nnc(-c3cc(-c4ccccc4)nc4ccccc34)n2-c2ccccc2)cc1")
"92.1% (inactive)"
>>> observed_measurement("COc1cc(C2CC(=O)Nc3c2c(C)nn3-c2nc3ccccc3[nH]2)c(OC)c(OC)c1OC (stereo not given)")
"82.6% (inactive)"

Record CCN(CC)CCN1CC(O)=C(c2nc(-c3ccc(Cl)cc3)cs2)C1=N has NCI-H23 lung growth equal to 65.2% (inactive)

Record N/C(=N\c1nc2ccccc2s1)NC(=O)Nc1cccc(Cl)c1 has NCI-H23 lung growth equal to 59.4% (inactive)

###

Test system: NCI/ADR-RES ovarian
Assay: NCI-60 one-dose screen, 48 h
Settings: 10 µM unless noted
About 83,000 compounds went through this panel and 20% of them were active in at least one assay; those are over-represented in the sample as a whole. The source made the active and inactive calls. Rule for the calls: active = growth percent below 10; inactive = the rest.
Write down one outcome, taken from active, inactive

Use the examples below as a reference point.
>>> group("Cc1c(C)c2c(c(C)c1OCC(=O)O)CC[C@@](C)(CCC[C@@H](C)CCC[C@@H](C)CCCC(C)C)O2")
"active"
>>> group("Cc1ccc(C(=O)COc2cccc(/C=C3\\Oc4ccccc4C3=O)c2)cc1")
"inactive"
>>> group("COc1ccc2cc(-c3cc(OC)c(OC)c(OC)c3)c(=O)oc2c1")
"inactive"

# input For COc1cc(Cn2ncc3ccc(NC(=O)c4cc5ccccc5oc4=N)cc32)cc(OC)c1OC , which call appears in the assay record?
# output inactive

# input For CCc1ccccc1-n1c(-c2ccc(Cl)cc2)cc(-c2ccc(Cl)cc2)c(C#N)c1=O , which call appears in the assay record?
# output inactive

###

System: UO-31 renal
Experiment: NCI-60 one-dose screen, 48 h
Details: 10 µM unless noted
About 83,000 compounds went through this panel and 20% of them were active in at least one assay; those are over-represented in the sample as a whole. The source made the active and inactive calls. The calls were made as follows: active = growth percent below 10; inactive = the rest.
Write down one outcome, taken from active, inactive

>>> group("CCCCNC(=O)Oc1ccc2c(=O)c3sc4c(=O)c5ccccc5c(=O)c4c3c(=O)c2c1")
"active"

# input For Cc1ccc(-c2cc3c(cc2O)C2CCCCC2(N2CCOCC2)O3)cc1 (stereo not drawn) , which call appears in the assay record?
# output inactive

###

Test system: OVCAR-4 ovarian
Assay: NCI-60 one-dose screen, 48 h (100 = growth as untreated, 0 = no growth, -100 = all killed)
Details: 10 µM unless noted
Compounds without any hit were thinned out: in the full panel of roughly 83,000, 20% have a hit.
Measured quantity: growth (%)
Express your answer in %, writing the number without its unit.

>>> observed_measurement("C[n+]1cc2cc(C(N)=O)[nH]c3c(=N)c(Cl)c(N)c1c23")
73
>>> observed_measurement("COc1ccc2c(c1)C(=O)/C(=C/c1cccc(OCC(=O)Nc3nc(C)c(C)s3)c1)O2")
-66.7
>>> observed_measurement("COc1cc(Cn2ncc3ccc(NC(=O)c4cc5ccccc5oc4=N)cc32)cc(OC)c1OC")
86.6
>>> observed_measurement("O=Cc1c[nH]c2ccc(-c3csc4ccccc34)cc12")
94.2
>>> observed_measurement("O=C1/C(=C/c2ccccc2)CCc2nc3ccccc3c(/C=C/c3ccc(Cl)cc3)c21")
80.5

Record C=C1C(=O)O[C@H]2[C@H]1CC/C(COC(=O)C(=O)c1c[nH]c3ccc(OC)cc13)=C\CC[C@@]1(C)O[C@@H]21 has OVCAR-4 ovarian growth equal to -12

Record CC(C)CCC[C@@H](C)[C@H]1CC[C@H]2[C@@H](Nc3ccc(O)cc3)CCC[C@]12C has OVCAR-4 ovarian growth equal to -73.1

Record N#C/C(=C\c1ccc(Br)cc1)n1nnc2cc(F)c(F)cc21 has OVCAR-4 ovarian growth equal to 29.8

Record COc1cccc(-c2nn(-c3ccccc3)cc2-c2ccnc(NCCNC(=O)Nc3ccccc3)c2)c1 has OVCAR-4 ovarian growth equal to 53.9

Record COc1ccc(N=C(c2ccccc2)C2C(=O)c3ccccc3C2=O)cc1 has OVCAR-4 ovarian growth equal to 77.3

Entry source: PubChem BioAssay (NCI)
